Target entity: CYP3A4 (Homo sapiens)
Sequence (P08684 whole entry): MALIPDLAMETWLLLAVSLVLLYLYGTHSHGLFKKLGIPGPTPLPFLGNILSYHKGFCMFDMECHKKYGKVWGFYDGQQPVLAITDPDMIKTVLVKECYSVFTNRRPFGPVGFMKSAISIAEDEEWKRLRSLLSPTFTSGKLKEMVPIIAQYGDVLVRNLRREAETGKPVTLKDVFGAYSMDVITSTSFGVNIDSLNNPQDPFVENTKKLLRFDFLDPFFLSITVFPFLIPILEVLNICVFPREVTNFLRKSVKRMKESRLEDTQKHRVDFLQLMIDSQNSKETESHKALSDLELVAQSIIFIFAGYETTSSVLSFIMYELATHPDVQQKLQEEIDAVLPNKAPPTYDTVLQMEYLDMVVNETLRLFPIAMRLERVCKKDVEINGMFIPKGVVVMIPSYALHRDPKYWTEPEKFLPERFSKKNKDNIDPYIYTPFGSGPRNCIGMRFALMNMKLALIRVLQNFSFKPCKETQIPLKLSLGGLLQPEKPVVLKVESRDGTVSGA
Method: P450-Glo CYP3A4 luciferin isopropylacetal (Luc-IP) assay
Measure name: IC50

Look up IC50 for this molecule: `CC(C)[C@@H](CO)NC(=O)c1ccc(-c2c[nH]c3cc(F)ccc23)cc1`
> 10 µM

Data request, read-out IC50, for O=C(NC1CCCNCC1)c1ccc(-c2c[nH]c3cc(F)ccc23)cc1 (centres unmarked)
> 10 µM

Which IC50 is reported for this molecule? `O=C(Nc1ccc(-c2c[nH]c3cc(F)ccc23)cc1)[C@@H]1CCCNC1`
> 10 µM

I have this molecule here, `COCC(=O)Nc1ccc(-c2c[nH]c3cc(F)ccc23)cc1` , and I need its recorded IC50.
> 10 µM

Which IC50 reading was recorded for the molecule CC(=O)N1CCCC(NC(=O)c2ccc(-c3c[nH]c4cc(F)ccc34)cc2)C1 (centres unmarked) ?
5 to 10 µM

###

Target entity: TDO in SW48 colorectal carcinoma cells (Homo sapiens)
Construct: Endogenous expression of TDO has been determined in a variety of cancer cell lines; host or cells: SW48 colorectal carcinoma cells
Method: Cell-based assay for TDO in SW48 colorectal carcinoma cells (NFK GreenScreen)
Details: IC50 on TDO in cells, 18 hours with L-tryptophan
Experimental: The biological activity of TDO inhibitors can be measured by applying above detection methods to cells that are treated with test compound. Endogenous expression of TDO has been determined in a variety of cancer cell lines (Pilotte et al.; Seegers, et al.), or TDO can be expressed in cells that lack endogenous TDO by transfection of an expression vector containing TDO cDNA. […]
pIC50: −log10 of the molar value.
Measure name: pIC50

Lab note: need pIC50 with TDO in SW48 colorectal carcinoma cells (Homo sapiens) for entry C[C@@H](CO)NC(=O)c1ccc(-c2c[nH]c3cc(F)ccc23)cc1 [Example 15] , please look it up.
≥ 6.70

###

For each record, write down the corresponding IC50.
Target entity: CYP3A4 (Homo sapiens)
Method: P450-Glo CYP3A4 luciferin isopropylacetal (Luc-IP) assay

Param item = `O=C(NC[C@@H]1CCNC1)c1ccc(-c2c[nH]c3cc(F)ccc23)cc1` ; retrieve measured IC50.
> 10 µM

Could you tell me which IC50 is on file for `N[C@H]1CC[C@@H](NC(=O)c2ccc(-c3c[nH]c4cc(F)ccc34)cc2)CC1` ?
5 to 10 µM

Quick one: IC50 for `O=C(NC[C@H]1CCCNC1)c1ccc(-c2c[nH]c3cc(F)ccc23)cc1` ?
5 to 10 µM

So what does the record say about IC50 for CC(N)CNC(=O)c1ccc(-c2c[nH]c3cc(F)ccc23)cc1Cl (stereo not shown) ?
5 to 10 µM

###

Target entity: Recombinant TDO (Homo sapiens)
Construct: Recombinant TDO (Seegers, N., et al.) and all other assay components were diluted in TDO reaction buffer
Sequence (P48775 whole entry): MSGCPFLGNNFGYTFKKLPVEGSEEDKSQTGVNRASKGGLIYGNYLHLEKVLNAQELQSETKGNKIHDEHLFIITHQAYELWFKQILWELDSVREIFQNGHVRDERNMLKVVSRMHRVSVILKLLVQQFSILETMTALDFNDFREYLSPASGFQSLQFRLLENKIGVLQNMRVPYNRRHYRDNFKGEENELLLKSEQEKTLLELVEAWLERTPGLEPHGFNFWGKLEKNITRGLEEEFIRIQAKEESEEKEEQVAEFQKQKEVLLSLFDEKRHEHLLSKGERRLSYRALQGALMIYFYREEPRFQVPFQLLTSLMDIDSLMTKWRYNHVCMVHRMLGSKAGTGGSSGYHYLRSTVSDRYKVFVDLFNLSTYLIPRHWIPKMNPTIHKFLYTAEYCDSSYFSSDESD
Method: Biochemical assay for TDO (NFK GreenScreen)
Details: 50 nM TDO, 200 μM L-tryptophan
So I've got a bunch of compounds here, and I need their IC50 values.

Lab note: need IC50 with Recombinant TDO (Homo sapiens) for entry `CS(=O)(=O)CC(=O)Nc1ccc(-c2c[nH]c3cc(F)ccc23)cc1` , please look it up.
1000 to 5000 nM

Missing value: IC50, Recombinant TDO (Homo sapiens), entry `C[C@H](CO)NC(=O)c1c(F)cc(-c2c[nH]c3cc(F)ccc23)cc1F` . Fill in?
< 1000 nM

API: value(readout= IC50, system= Recombinant TDO (Homo sapiens), query= `O=C(CCc1ccccc1)Nc1ccc(-c2c[nH]c3cc(F)ccc23)cc1` )
1000 to 5000 nM

Enter reported IC50 observed with Recombinant TDO (Homo sapiens) for `CCNC(=O)Nc1ccc(-c2c[nH]c3cc(F)ccc23)cc1`
1000 to 5000 nM

Query for Recombinant TDO (Homo sapiens): what IC50 does the record show for CC(CN(C)C)NC(=O)c1ccc(-c2c[nH]c3cc(F)ccc23)cc1Cl (stereo not drawn) ?
< 1000 nM

Please provide the recorded IC50 for `CN(C)C(=O)Nc1ccc(-c2c[nH]c3cc(F)ccc23)cc1` , tested on Recombinant TDO (Homo sapiens).
1000 to 5000 nM

Requested read-out IC50, target or system Recombinant TDO (Homo sapiens), entry `O=C(NOC[C@H](O)CO)c1ccc(-c2c[nH]c3cc(F)ccc23)cc1`
< 1000 nM

Provide value of IC50 for this record tested with Recombinant TDO (Homo sapiens): `N[C@H]1CC[C@@H](NC(=O)c2ccc(-c3c[nH]c4cc(F)ccc34)cc2)CC1`
< 1000 nM

Give Recombinant TDO (Homo sapiens) IC50 for `C[C@H](CO)NC(=O)c1ccc(-c2c[nH]c3cc(F)ccc23)cc1Cl`
< 1000 nM

Give IC50 (Recombinant TDO (Homo sapiens)) of the following compound: `Nc1ccn(C(=O)c2ccc(-c3c[nH]c4cc(F)ccc34)cc2)n1`
1000 to 5000 nM

Notebook entry, Recombinant TDO (Homo sapiens) assay: IC50 of `COC[C@@H](C)NC(=O)c1ccc(-c2c[nH]c3cc(F)ccc23)cc1` = ?
< 1000 nM

Lab request: please report IC50 under test system Recombinant TDO (Homo sapiens) for `C[C@H](CO)NC(=O)c1ccc(-c2c[nH]c3ccc(F)cc23)cc1`
< 1000 nM

Quick check: IC50 on Recombinant TDO (Homo sapiens), item `O=C(NC[C@@H]1CCCN1)c1ccc(-c2c[nH]c3cc(F)ccc23)cc1` ?
< 1000 nM

Give Recombinant TDO (Homo sapiens) IC50 for `O=C(N[C@H]1CCCNC1)c1ccc(-c2c[nH]c3cc(F)ccc23)cc1F`
< 1000 nM

For Recombinant TDO (Homo sapiens), provide IC50 of `CN1CCN(CC(=O)Nc2ccc(-c3c[nH]c4cc(F)ccc34)cc2)CC1` please.
< 1000 nM

# query: IC50 | item `O=C(N[C@H]1CCC[C@@H]1O)c1ccc(-c2c[nH]c3cc(F)ccc23)cc1` | system: Recombinant TDO (Homo sapiens)
< 1000 nM

Request: IC50, test system Recombinant TDO (Homo sapiens), entry `N[C@@H]1CCC[C@H](C(=O)Nc2ccc(-c3c[nH]c4cc(F)ccc34)cc2)C1`
< 1000 nM

Requested read-out IC50, target or system Recombinant TDO (Homo sapiens), entry `CN(C)CCCNC(=O)c1ccc(-c2c[nH]c3ccc(F)cc23)cc1`
< 1000 nM

Request - read-out IC50 | tested on Recombinant TDO (Homo sapiens) | compound `N[C@H]1CC[C@@H](C(=O)Nc2ccc(-c3c[nH]c4cc(F)ccc34)cc2)C1`
< 1000 nM

State its IC50 on Recombinant TDO (Homo sapiens): `CN(C)CCCNC(=O)c1ccc(-c2c[nH]c3cc(F)ccc23)cc1Cl`
< 1000 nM

Find the measured IC50: item CN1CCCC(NC(=O)c2ccc(-c3c[nH]c4cc(F)ccc34)cc2)C1 (stereo not drawn) , target or system Recombinant TDO (Homo sapiens).
< 1000 nM

Give the reported IC50 for `Cc1cc(CC(=O)Nc2ccc(-c3c[nH]c4cc(F)ccc34)cc2)no1` (system: Recombinant TDO (Homo sapiens)).
1000 to 5000 nM

Give IC50 (Recombinant TDO (Homo sapiens)) of the following compound: `COC(=O)[C@@H](C)NC(=O)c1ccc(-c2c[nH]c3cc(F)ccc23)cc1`
< 1000 nM

For the record `CC(C)(O)CC(=O)Nc1ccc(-c2c[nH]c3cc(F)ccc23)cc1` , what value of IC50 is listed for Recombinant TDO (Homo sapiens)?
< 1000 nM

Form field - read-out: IC50; system: Recombinant TDO (Homo sapiens); submitted item: `O=C(NCC(F)(F)F)c1ccc(-c2c[nH]c3ccc(F)cc23)cc1`
< 1000 nM

Notebook entry, Recombinant TDO (Homo sapiens) assay: IC50 of `COC(=O)CNC(=O)c1ccc(-c2c[nH]c3cc(F)ccc23)cc1` = ?
< 1000 nM

Provide the documented IC50 with Recombinant TDO (Homo sapiens) as the system for `O=C(NCC1(O)CCCCC1)c1ccc(-c2c[nH]c3cc(F)ccc23)cc1`
1000 to 5000 nM

Find IC50 (Recombinant TDO (Homo sapiens)) for the entry `O=C(NC[C@@H]1CCCNC1)c1ccc(-c2c[nH]c3cc(F)ccc23)cc1`
< 1000 nM

Lab note: need IC50 with Recombinant TDO (Homo sapiens) for entry CN1CCCC(NC(=O)c2ccc(-c3c[nH]c4cc(F)ccc34)cc2Cl)C1 (stereo not drawn) , please look it up.
< 1000 nM

Which measured IC50 belongs to CC(O)C(C)NC(=O)c1ccc(-c2c[nH]c3cc(F)ccc23)cc1 (stereo not drawn) , tested on Recombinant TDO (Homo sapiens)?
< 1000 nM

What measured IC50 is associated with `CC(CO)(CO)NC(=O)c1ccc(-c2c[nH]c3cc(F)ccc23)cc1` on Recombinant TDO (Homo sapiens)?
< 1000 nM

Param readout = IC50; param system = Recombinant TDO (Homo sapiens); param query = `C[C@H](O)CC(=O)Nc1ccc(-c2c[nH]c3cc(F)ccc23)cc1` ; response: value
< 1000 nM

// map `O=C(NCCO)c1ccc(-c2c[nH]c3cc(F)ccc23)cc1` to recorded IC50 (system: Recombinant TDO (Homo sapiens))
< 1000 nM

Return IC50 measured with Recombinant TDO (Homo sapiens) given this compound: `COc1cc(-c2c[nH]c3cc(F)ccc23)ccc1C(=O)N[C@@H](C)CO`
< 1000 nM

Notebook entry, Recombinant TDO (Homo sapiens) assay: IC50 of O=C(Nc1ccc(-c2c[nH]c3cc(F)ccc23)cc1)C1CC12CCNCC2 (stereo not drawn) = ?
< 1000 nM

Please state recorded IC50 (tested on Recombinant TDO (Homo sapiens)) of `CN(C)CCCNC(=O)c1ccc(-c2c[nH]c3cc(F)ccc23)cc1F`
< 1000 nM
